- assayedSystem: T1, histidine-tagged human Siglec-7 (NovoProtein) (human, UniProt Q9Y286 19-353)
- T1 construct: Bought protein; also called recombinant human Siglec-7; recombinant Siglec-7; not shown: histidine tag
- T1 sequence (Q9Y286 19-353 limits assumed): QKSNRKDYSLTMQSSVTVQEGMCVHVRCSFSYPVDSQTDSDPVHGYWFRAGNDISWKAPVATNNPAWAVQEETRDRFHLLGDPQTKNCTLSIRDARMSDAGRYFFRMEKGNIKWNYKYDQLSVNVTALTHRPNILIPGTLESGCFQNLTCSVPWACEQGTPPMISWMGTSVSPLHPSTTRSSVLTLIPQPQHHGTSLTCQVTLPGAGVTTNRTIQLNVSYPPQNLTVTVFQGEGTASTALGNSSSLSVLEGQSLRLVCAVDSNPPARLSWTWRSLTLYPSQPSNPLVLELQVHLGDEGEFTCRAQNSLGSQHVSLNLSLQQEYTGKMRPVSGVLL
- assayProtocol: BLI, antibody captured
endpointLabel: fold improvement over S7AB-H8 (fold)

- S7AB-H8.1 (antibody, V domains shown) VH: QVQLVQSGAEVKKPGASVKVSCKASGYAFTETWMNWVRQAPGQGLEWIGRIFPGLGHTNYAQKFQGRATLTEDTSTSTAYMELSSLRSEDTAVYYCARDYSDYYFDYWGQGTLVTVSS VL: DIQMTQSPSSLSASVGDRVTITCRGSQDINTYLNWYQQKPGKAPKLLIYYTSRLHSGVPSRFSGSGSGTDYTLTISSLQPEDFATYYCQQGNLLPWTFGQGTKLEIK: 1.8
- S7AB-H8.13 (antibody, V domains shown) VH: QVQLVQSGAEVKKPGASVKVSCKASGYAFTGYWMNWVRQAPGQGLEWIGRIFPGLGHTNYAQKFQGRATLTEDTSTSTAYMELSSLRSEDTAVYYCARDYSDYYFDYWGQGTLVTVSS VL: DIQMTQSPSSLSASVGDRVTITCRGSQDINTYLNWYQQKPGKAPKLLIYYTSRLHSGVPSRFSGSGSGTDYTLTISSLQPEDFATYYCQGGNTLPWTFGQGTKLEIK: 0.03
- S7AB-H8.42 (antibody, V domains shown) VH: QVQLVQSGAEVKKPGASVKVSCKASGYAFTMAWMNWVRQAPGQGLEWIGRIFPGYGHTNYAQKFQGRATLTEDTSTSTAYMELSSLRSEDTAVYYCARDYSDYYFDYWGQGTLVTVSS VL: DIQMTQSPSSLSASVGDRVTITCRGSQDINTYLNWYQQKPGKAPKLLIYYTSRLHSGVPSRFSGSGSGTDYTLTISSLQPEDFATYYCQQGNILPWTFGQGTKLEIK: 8.3
- S7AB-H8.14 (antibody, V domains shown) VH: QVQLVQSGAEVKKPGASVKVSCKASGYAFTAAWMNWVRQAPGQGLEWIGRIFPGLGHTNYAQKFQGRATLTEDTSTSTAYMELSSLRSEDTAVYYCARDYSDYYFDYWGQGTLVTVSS VL: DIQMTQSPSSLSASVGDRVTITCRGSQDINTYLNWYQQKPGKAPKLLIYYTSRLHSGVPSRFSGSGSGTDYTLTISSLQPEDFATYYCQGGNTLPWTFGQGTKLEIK: 0.02
- S7AB-H8.40 (antibody, V domains shown) VH: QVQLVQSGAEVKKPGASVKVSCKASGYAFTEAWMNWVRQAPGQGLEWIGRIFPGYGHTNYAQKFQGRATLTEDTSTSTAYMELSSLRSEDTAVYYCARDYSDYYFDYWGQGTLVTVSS VL: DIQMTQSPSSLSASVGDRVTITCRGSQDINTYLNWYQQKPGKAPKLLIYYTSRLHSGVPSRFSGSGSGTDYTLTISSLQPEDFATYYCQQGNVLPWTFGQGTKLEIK: 2.5
